Target: T1, human IL-12Rβ2 expressed on cells (human, UniProt Q99665 24-862)
T1 construct: the cell lines are described by plasmid or cDNA number only; also called hIL-12RB2; HEK293T transiently transfected with human IL-12Rβ2
T1 sequence: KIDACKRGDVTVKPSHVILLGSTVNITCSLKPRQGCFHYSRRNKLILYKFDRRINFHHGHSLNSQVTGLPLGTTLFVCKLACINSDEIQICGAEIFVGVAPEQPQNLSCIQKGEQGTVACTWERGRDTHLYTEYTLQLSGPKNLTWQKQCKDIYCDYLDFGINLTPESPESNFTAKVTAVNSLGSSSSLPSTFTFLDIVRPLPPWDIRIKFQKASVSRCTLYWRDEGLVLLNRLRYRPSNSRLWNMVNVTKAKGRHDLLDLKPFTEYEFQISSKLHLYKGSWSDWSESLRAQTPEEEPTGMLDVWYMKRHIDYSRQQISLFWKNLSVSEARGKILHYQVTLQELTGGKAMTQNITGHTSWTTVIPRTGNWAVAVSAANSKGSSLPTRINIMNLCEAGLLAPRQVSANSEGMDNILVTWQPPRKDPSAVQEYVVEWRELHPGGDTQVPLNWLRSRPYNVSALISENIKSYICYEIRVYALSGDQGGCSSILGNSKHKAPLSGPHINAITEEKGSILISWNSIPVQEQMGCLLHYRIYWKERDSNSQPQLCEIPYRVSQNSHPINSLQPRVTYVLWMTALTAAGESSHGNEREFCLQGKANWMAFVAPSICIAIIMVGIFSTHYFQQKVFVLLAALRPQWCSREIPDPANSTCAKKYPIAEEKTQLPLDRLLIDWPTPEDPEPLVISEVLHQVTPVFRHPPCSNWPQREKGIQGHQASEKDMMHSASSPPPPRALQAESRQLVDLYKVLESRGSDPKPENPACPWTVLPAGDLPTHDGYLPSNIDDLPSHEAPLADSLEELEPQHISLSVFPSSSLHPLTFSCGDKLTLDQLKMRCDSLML
Assay explanation: flow cytometry, periplasmic extract VHH-HA on HEK293T cells transiently expressing human IL-12Rβ2
Parameter measured: % cells bound (%)
Report the figure in % without appending any unit label.

Please review the following examples before continuing.
anti-IL-12Rβ2 VHH clone 3CRHS163 (clone ID 20438) (VHH, Tested as periplasmic extract; also called 3CANS142; not shown: C-terminal HA tag) VHH: QVQLQESGGGLVQPGGSLRLSCTASGFAFSTYWMYWIRQSPEKGFEWVSVVNTGGDITYYADSVKGRFTISRDNAKNTLYLQMNSLKPEDTALYYCARDRTTMSYTRTYYRGGQGTQVTVSS
43.7
anti-IL-12Rβ2 VHH clone 2CRH82 (clone ID 20372) (VHH, Tested as periplasmic extract; not shown: C-terminal HA tag) VHH: QVQLQESGGGLVQAGGSLRLSCAASARTESMYAMAWFRQAPGKEREIVAGIIQSGGTTYISDYMKGRFSIDRGNAENTVYLQMDSLKPEDTAVYSCAAKVSSGTPSDIQISQSRWYDHWGQGTQVTVSS
40.1
anti-IL-12Rβ2 VHH clone 3CRHS128 (clone ID 20432) (VHH, Tested as periplasmic extract; not shown: C-terminal HA tag) VHH: QVQLQESGGGLVQPGGSLRLSCAASGFTFSTSGMHWFRQAPGKGLEWVSSIGATVDNSYYASSVKGRFTISRDNAKNTLYLLMNSLKSEDTAVYYCSKDPTGSSRGQGTQVTVSS
50.5

Turning now to a further record.
Identify measured % cells bound corresponding to anti-IL-12Rβ2 VHH clone 3CAHS124 (clone ID 20400) (VHH, Tested as periplasmic extract; not shown: C-terminal HA tag) VHH: QVQLQESGGGLVQPGGSLRLSCAASGRTINAYIMGWFRQAPGKEREFVAAVSGSGGSTYYADSVKGRFTISRDNAKNTVNLQMDNLRSEDTDVYYCAATYESVYLQNPGQYDYWGQGTQVTVSS
46.3
